Examples of binders with documented fluorescence follow.
systemTested: Diaphorase
methodDescription: peptide array, 1 uM labeled diaphorase, no FAD

binder	fluorescence
RFGQNLPLGGSG	5800
RNWYGGS [RNWYGGSG]	7830
RWRYYWKSEGSG	11000
KNRPYNKDLEDGSG	733
RYPWNKLYKFDGSG	9740
YVWGLELSGGSG	2610
RAQYAQYLFGGSG	8720
EAVQKLLFSGSG	1460
